Molecular target: Protein phosphatase methylesterase 1 (Homo sapiens) (UniProt Q9Y570)
Sequence (Q9Y570 whole entry, looked up): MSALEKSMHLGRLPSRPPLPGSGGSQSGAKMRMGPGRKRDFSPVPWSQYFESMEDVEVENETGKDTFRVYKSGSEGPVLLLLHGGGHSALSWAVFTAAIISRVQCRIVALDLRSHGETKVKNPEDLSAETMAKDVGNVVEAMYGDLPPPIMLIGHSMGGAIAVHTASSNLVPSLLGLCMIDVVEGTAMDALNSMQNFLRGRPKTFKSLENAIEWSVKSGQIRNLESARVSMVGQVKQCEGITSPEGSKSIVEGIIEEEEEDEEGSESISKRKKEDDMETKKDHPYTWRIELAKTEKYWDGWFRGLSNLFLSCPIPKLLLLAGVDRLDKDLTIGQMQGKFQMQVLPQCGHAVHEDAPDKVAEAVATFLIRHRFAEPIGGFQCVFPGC
Test: inhibitors of human PME-1 in Maybridge library (AID 2291)
Settings: recombinant PME-1, FP-Rh probe fluorescence polarization; at 9 µM; stronger effect = higher value
The whole screen tested about 16,000 compounds, of which about 75 (0.5%) were called active. For the sample, actives were picked, then their nearest neighbours and some compounds at random.
measurement type: inhibition (%)
One number for each entry, in %.

// known answers, use as guide
> print(dat)
                                   compound                             target.system  reading
1                  NC(=O)c1ccc(-c2csnn2)cc1  Protein phosphatase methylesterase 1 (Homo sapiens) (UniProt Q9Y570)     4.57
2  CCOC(=O)c1c(-c2ccco2)csc1NC(=O)Nc1ccc(Cl)cc1  Protein phosphatase methylesterase 1 (Homo sapiens) (UniProt Q9Y570)    -41.9
3  O=C1CCN(Cc2ccccc2)C(=O)N1c1ccc2c(c1)CCO2  Protein phosphatase methylesterase 1 (Homo sapiens) (UniProt Q9Y570)     5.14
4       CN(C)/C=C1/C(=O)NN=C1CSc1ccc(Cl)cc1  Protein phosphatase methylesterase 1 (Homo sapiens) (UniProt Q9Y570)     4.88
5  N#CC(C#N)=C/C=C(/Sc1nc2cc(Cl)ccc2s1)c1ccc(Cl)cc1  Protein phosphatase methylesterase 1 (Homo sapiens) (UniProt Q9Y570)     3.07
6  COc1ccccc1C1CCN(c2ccc([N+](=O)[O-])cn2)CC1  Protein phosphatase methylesterase 1 (Homo sapiens) (UniProt Q9Y570)     3.68
7   N#Cc1c(C(F)(F)F)cc(-c2cccs2)nc1N1CCCCC1  Protein phosphatase methylesterase 1 (Homo sapiens) (UniProt Q9Y570)    -3.16
8  CSc1nccc(-c2ccc(S(=O)(=O)n3nc(C)c(Br)c3C)s2)n1  Protein phosphatase methylesterase 1 (Homo sapiens) (UniProt Q9Y570)    -1.68

// for each compound below, give its inhibition
1. OCCNC(=S)Nc1ccccc1-c1ccccc1
2. COC(=O)c1cc(S(=O)(=O)NCc2csc(-c3cccs3)n2)oc1C
3. COc1ccc(-c2ccc(/C=N/NC(=O)CCc3ccc(O)cc3)s2)cc1
4. O=[N+]([O-])c1ccc(C2CC2(Br)Br)cc1 (configuration not stated)

[reply]
1. 0.487
2. -1.1
3. -3.06
4. 0.49

###

Please provide measured inhibition for the entries that follow.
Target: Protein phosphatase methylesterase 1 (Homo sapiens) (UniProt Q9Y570)
Assay: inhibitors of human PME-1 in Maybridge library (AID 2291)
Details: recombinant PME-1, FP-Rh probe fluorescence polarization; at 9 µM; stronger effect = higher value
In all, about 16,000 compounds went through this assay and about 75 (0.5%) were called active. Shown is part of a subset that was picked to be rich in actives.
Numbers only, in %.

> print(dat)
                                   compound  value.unit  reading
1  CCOC(=O)c1cnc2c(S(=O)(=O)C(C)C)csc2c1Sc1cccc(Cl)c1           %     3.84
2  COc1ccc(-c2nnc(SCC(O)C(F)(F)F)n2-c2cccc(OC)c2)cc1 (centres undefined)           %     1.14
3  NC(=NC(=O)CCn1c(=O)oc2ccccc21)c1cc(Cl)cc(Cl)c1           %    -1.92

// for each compound below, give its inhibition
1. Cc1nc2cc3c(cc2s1)OCO3
2. CSC(=Nc1ccccc1C(F)(F)F)N1CCCC1
3. CC1=CC(=O)C(CCC2=CC(=O)C(C)=CC2=O)=CC1=O
4. Cc1cc(C)n(/N=c2\sc(-c3ccccc3)cn2C2CC3C=CC2C3)c(=O)c1C#N (centres undefined)

[reply]
-0.92
-2.33
-5.46
1.38

// for each compound below, give its inhibition
1. Cc1nnc(Sc2ccc([N+](=O)[O-])c(Sc3nnc(C)s3)n2)s1
2. N#Cc1c(N)nc2c3c1NC(O)(c1ccccc1)C(C#N)C3c1cc(Cl)ccc1O2 (centres undefined)
3. CCOC(=O)N/N=C(\C)c1cccc(NC(C)=O)c1
4. CCOC(=O)C(O)(NC(=O)Nc1ccccc1)C(F)(F)F (centres undefined)
5. CSc1ccc(C(F)(F)F)cc1NC(=S)Nc1ccccc1
6. O/N=C(\c1ccccc1)c1ccccn1
7. CSc1nc(N)n(-c2ccccc2)n1
8. OC(CN1CCN(c2ccc(C(F)(F)F)cn2)CC1)c1ccc2c(c1)OCCO2 (centres undefined)

[reply]
1: 5.33; 2: -25.9; 3: -0.548; 4: 6.03; 5: 0.0132; 6: 1.61; 7: 2.24; 8: -3.57

// for each compound below, give its inhibition
1. COc1cccc(/C=N/NC(=S)Nc2cc(C(F)(F)F)cc(C(F)(F)F)c2)c1O
2. Cc1ccc(/C=c2\sc3nc4ccccc4n3c2=O)o1
3. N#C/C(=C\N1CCc2ccccc21)S(=O)(=O)c1ccc(C(F)(F)F)cn1
4. CCCCC#Cc1cncc(C(=O)NNC(=O)Nc2ccc(Cl)cc2)c1
5. FC(F)(F)c1ccc(Cl)c(NC(=S)NN=C2CCCCCC2)c1
6. CN1CCCCC(C2=C(Cl)C(=O)CCC2)C1=O (centres undefined)
7. COCn1nnc2ccccc21

[reply]
[5.97, 7.34, 2.09, 2.26, 0.88, 3.98, 0.294]

// for each compound below, give its inhibition
1. CCOC(=O)NN(C(=O)OCC)c1c(C)c(C)c(C)c(C)c1C
2. NNC(=O)CSc1nnc(-c2ccccc2)n1-c1ccccc1

[reply]
-1.33
3.4
